- Read-out: flavin-containing dimethylaniline monooxygenases 3 (FMO3), FMO3 (gene 2328)
- assayMethodText: LTEA_HepaRG_FMO3: Life Technologies and Expression Analysis (LTEA) Assay for flavin-containing dimethylaniline monooxygenases 3 (FMO3) using HepaRG (AID 2283453)
- conditionLabel: mRNA level, 48 h; actives raise or lower the signal
Active and inactive are the calls of the source. The calls were made as follows: active = hit-call score of the fitted dose curve at least 0.9, where 1 is the maximum; inactive = score below 0.9.
Outcomes: 1 (yes) (active), 0 (no) (inactive)

{"compound": "[N-]=[N+]=[N-]", "categoryLabel": "1 (yes)"}
{"compound": "ClC(Cl)c1ccccc1", "categoryLabel": "0 (no)"}
{"compound": "CCNc1nc(Cl)nc(NC(C)(C)C)n1", "categoryLabel": "0 (no)"}
{"compound": "CCCCN(CCCC)SN(C)C(=O)Oc1cccc2c1OC(C)(C)C2", "categoryLabel": "0 (no)"}
{"compound": "CC(Cc1ccc(OCC(=O)O)cc1)NCC(O)c1csc(C(F)(F)F)n1 (stereo not drawn)", "categoryLabel": "0 (no)"}
{"compound": "CCOC(=O)c1ccccc1C(=O)OCC", "categoryLabel": "0 (no)"}
{"compound": "CCOP(=S)(OCC)SCSCC", "categoryLabel": "0 (no)"}
{"compound": "O=C(O)C1C(C(=O)O)C2(Cl)C(Cl)=C(Cl)C1(Cl)C2(Cl)Cl (stereo not drawn)", "categoryLabel": "0 (no)"}
{"compound": "CC(C)(C)OOC(C)(C)C", "categoryLabel": "0 (no)"}
{"compound": "CCN(CC)c1ccccc1", "categoryLabel": "0 (no)"}
{"compound": "CC(Cl)(Cl)C(=O)O", "categoryLabel": "0 (no)"}
{"compound": "O=C(O)C(Cl)Cl", "categoryLabel": "0 (no)"}
{"compound": "CCOc1ccc(C(C)(C)COCc2cccc(Oc3ccccc3)c2)cc1", "categoryLabel": "0 (no)"}

---

- Read-out: Tumor necrosis factor (Homo sapiens)
- assayMethodText: BSK_LPS_TNFa: BioMAP Diversity Plus: LPS Assay for Tumour Necrosis Factor alpha (TNFa) Biomarker Activity (AID 2283085)
- conditionLabel: primary human HUVEC with PBMC; actives raise or lower the signal
Activity calls are given as the source filed them. Rule for the calls: active = hit-call score of the fitted dose curve at least 0.9, where 1 is the maximum; inactive = score below 0.9.
Outcomes: active, inactive

{"compound": "Nc1ccc([N+](=O)[O-])cc1Cl", "categoryLabel": "inactive"}
{"compound": "CCOC(=O)c1ccccc1C(=O)OCC", "categoryLabel": "inactive"}
{"compound": "CC(C)(C)c1ccccc1OP(=O)(Oc1ccccc1)Oc1ccccc1", "categoryLabel": "inactive"}
{"compound": "CCOP(=S)(OCC)SCSCC", "categoryLabel": "inactive"}
{"compound": "N#Cc1c(-c2ccc(Cl)cc2)[nH]c(C(F)(F)F)c1Br", "categoryLabel": "active"}
{"compound": "O=C(O)C(F)(F)OC(F)(F)C(F)(F)OC(F)(F)F", "categoryLabel": "inactive"}
{"compound": "O=P(OCC(Br)CBr)(OCC(Br)CBr)OCC(Br)CBr (centres undefined)", "categoryLabel": "inactive"}
{"compound": "CCCCCCCc1ccc(O)cc1", "categoryLabel": "active"}
{"compound": "CCCCOCCOP(=O)(OCCOCCCC)OCCOCCCC", "categoryLabel": "inactive"}
{"compound": "CCOP(=S)(OCC)SCn1nnc2ccccc2c1=O", "categoryLabel": "inactive"}
{"compound": "Cc1ccc2c(c1N)C(=O)c1ccccc1C2=O", "categoryLabel": "inactive"}
{"compound": "CCOP(=S)(Oc1ccc([N+](=O)[O-])cc1)c1ccccc1 (centres undefined)", "categoryLabel": "active"}
{"compound": "CCOP(=S)(OCC)SCS(=O)(=O)CC", "categoryLabel": "inactive"}
{"compound": "CC(C)(C)OOC(C)(C)C", "categoryLabel": "inactive"}
{"compound": "N#Cc1cc([N+](=O)[O-])ccc1N", "categoryLabel": "inactive"}
{"compound": "CCC(C)(C)c1ccc(O)cc1", "categoryLabel": "inactive"}
{"compound": "Nc1cc2c3c(c1)C(c1ccccc1)=N[C@@H](NC(=O)c1cccnc1)C(=O)N3CC2", "categoryLabel": "active"}
{"compound": "Cc1ccc(O)cc1C", "categoryLabel": "inactive"}
{"compound": "CC(Cl)CN(C)C (centres undefined)", "categoryLabel": "inactive"}
{"compound": "c1nc[nH]n1", "categoryLabel": "inactive"}
{"compound": "CCC1(c2ccccc2)C(=O)N=C(O)NC1=O (centres undefined)", "categoryLabel": "inactive"}
{"compound": "c1cc2c3c(cccc3c1)CC2", "categoryLabel": "inactive"}
{"compound": "Nc1ccc(Cl)cc1", "categoryLabel": "inactive"}
{"compound": "c1ccc2c(c1)Nc1ccccc1S2", "categoryLabel": "active"}
{"compound": "OCC(F)(F)OC(F)(F)C(F)(F)OC(F)(F)C(F)(F)OC(F)(F)CO", "categoryLabel": "inactive"}
{"compound": "CSC(C)(C)C=NO", "categoryLabel": "inactive"}
{"compound": "O=S1(=O)OCC2C(CO1)C1(Cl)C(Cl)=C(Cl)C2(Cl)C1(Cl)Cl (centres undefined)", "categoryLabel": "inactive"}
{"compound": "c1ccc2c(c1)sc1ccccc12", "categoryLabel": "inactive"}
{"compound": "Cc1ccc([N+](=O)[O-])cc1C", "categoryLabel": "inactive"}
